# ASSAY SYSTEM: GAK (Homo sapiens, UniProt O14976)
# Construct: catalytic domain-containing construct
# Sequence (O14976 whole entry, the tested form may be a part): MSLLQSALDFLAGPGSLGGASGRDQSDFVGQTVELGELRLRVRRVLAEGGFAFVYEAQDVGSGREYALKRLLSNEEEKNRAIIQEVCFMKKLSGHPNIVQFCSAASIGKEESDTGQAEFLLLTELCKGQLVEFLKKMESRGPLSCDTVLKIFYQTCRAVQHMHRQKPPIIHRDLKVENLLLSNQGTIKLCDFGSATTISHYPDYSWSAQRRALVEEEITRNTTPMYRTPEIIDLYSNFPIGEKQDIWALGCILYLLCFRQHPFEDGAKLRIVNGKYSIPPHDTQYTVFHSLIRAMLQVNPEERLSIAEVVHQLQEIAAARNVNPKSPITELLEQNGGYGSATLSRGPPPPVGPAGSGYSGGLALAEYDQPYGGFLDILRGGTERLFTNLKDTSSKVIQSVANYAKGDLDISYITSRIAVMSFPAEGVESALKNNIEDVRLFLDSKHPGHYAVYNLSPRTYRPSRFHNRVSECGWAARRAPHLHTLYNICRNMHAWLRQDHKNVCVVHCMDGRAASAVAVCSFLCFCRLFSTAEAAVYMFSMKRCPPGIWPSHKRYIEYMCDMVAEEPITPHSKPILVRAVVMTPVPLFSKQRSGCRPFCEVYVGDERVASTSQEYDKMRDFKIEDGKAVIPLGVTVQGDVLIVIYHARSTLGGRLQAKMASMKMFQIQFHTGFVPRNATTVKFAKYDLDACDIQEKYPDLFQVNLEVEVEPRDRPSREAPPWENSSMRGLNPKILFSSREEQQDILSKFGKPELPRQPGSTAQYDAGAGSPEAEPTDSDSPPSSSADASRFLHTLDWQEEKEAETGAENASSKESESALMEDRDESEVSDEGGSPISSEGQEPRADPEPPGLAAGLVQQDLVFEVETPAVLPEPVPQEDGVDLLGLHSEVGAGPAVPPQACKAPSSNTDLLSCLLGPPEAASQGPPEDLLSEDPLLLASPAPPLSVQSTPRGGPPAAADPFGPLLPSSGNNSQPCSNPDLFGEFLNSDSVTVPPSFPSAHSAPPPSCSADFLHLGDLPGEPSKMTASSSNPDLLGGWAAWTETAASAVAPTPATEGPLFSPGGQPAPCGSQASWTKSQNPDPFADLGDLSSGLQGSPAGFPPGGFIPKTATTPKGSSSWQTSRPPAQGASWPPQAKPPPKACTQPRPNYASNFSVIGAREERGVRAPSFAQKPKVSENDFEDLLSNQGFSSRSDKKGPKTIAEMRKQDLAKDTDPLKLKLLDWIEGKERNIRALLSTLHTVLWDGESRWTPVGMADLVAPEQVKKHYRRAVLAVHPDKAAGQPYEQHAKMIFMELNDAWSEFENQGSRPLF
# ASSAY PROCEDURE: biochemical
# Design: Thermal shift assay (DSF, SYPRO Orange), 2 uM kinase domain, mean delta Tm of triplicates versus DMSO
# CONDITION SUMMARY: read-out: GAK
Reported values of ΔTm at 12.5 µM for individual entries
Returns: string containing the number followed by the unit.

Known ΔTm at 12.5 µM results, listed for orientation:
Request: ΔTm at 12.5 µM lookup needed for CNC(=O)c1cccc(-c2ccc3c(N4CCOC[C@@H]4C)nc(N4CCOC[C@@H]4C)nc3n2)c1 , thanks.
Response: -0.433 °C

Request: ΔTm at 12.5 µM lookup needed for Cc1cn(-c2cc(NC(=O)c3ccc(C)c(Nc4nccc(-c5cccnc5)n4)c3)cc(C(F)(F)F)c2)cn1 , thanks.
Response: 5.36 °C

Request: ΔTm at 12.5 µM lookup needed for Cc1ccc([N+](=O)[O-])cc1S(=O)(=O)N(C)/N=C/c1cnc2ccc(Br)cn12 , thanks.
Response: 3.07 °C

Next:
Request: ΔTm at 12.5 µM lookup needed for C[C@@]1(C(=O)Nc2ccc(F)nc2)CCCN1c1nc(Nc2cc(C3CC3)n[nH]2)c2cccn2n1 , thanks.
Response: -0.337 °C

Request: ΔTm at 12.5 µM lookup needed for COc1ccc(Cl)c(Nc2nc3ccccc3nc2NS(=O)(=O)c2cccc(NC(=O)C(C)(C)N)c2)c1 , thanks.
Response: -0.55 °C

Request: ΔTm at 12.5 µM lookup needed for CNc1nc(-c2ccc3c(N)n[nH]c3c2)cc(N2C[C@@H](C(=O)NC3CCCCC3)CC[C@H]2C)n1 , thanks.
Response: 1.69 °C

Request: ΔTm at 12.5 µM lookup needed for C[C@H](Nc1ncnc2nc[nH]c12)c1cc2cccc(Cl)c2c(=O)n1-c1ccccc1 , thanks.
Response: -0.497 °C

###

# ASSAY SYSTEM: MPSK1 (Homo sapiens, UniProt O75716)
# Construct: gene STK16; catalytic domain-containing construct
# Sequence (O75716 whole entry, the tested form may be a part): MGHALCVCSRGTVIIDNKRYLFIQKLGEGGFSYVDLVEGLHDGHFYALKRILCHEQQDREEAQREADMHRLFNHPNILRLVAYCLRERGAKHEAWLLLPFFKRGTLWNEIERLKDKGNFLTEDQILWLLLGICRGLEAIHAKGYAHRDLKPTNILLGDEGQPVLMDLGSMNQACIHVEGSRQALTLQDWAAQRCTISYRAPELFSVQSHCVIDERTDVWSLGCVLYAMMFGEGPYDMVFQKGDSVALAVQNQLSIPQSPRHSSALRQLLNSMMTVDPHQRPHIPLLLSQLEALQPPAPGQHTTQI
# ASSAY PROCEDURE: biochemical
# Set-up: Thermal shift assay (DSF, SYPRO Orange), 2 uM kinase domain, mean delta Tm of triplicates versus DMSO
# CONDITION SUMMARY: read-out: MPSK1
QUANTITY KIND: ΔTm at 12.5 µM (°C)
# unit: °C | format: bare number

Request: ΔTm at 12.5 µM lookup needed for C=CC(=O)N1CCC[C@@H](n2nc(-c3ccc(Oc4ccccc4)cc3)c3c(N)ncnc32)C1 , thanks.
Response: 1.76

Request: ΔTm at 12.5 µM lookup needed for Nc1nccc(-c2c(-c3ccc(F)cc3)ncn2C2CCCCC2)n1 , thanks.
Response: 1.83

Next:
Request: ΔTm at 12.5 µM lookup needed for Cc1nc(NC(=O)N2CCC[C@H]2C(N)=O)sc1-c1ccnc(C(C)(C)C(F)(F)F)c1 , thanks.
Response: 0.743

Request: ΔTm at 12.5 µM lookup needed for CC(=O)Nc1cccc(-n2c(=O)n(C3CC3)c(=O)c3c(Nc4ccc(I)cc4F)n(C)c(=O)c(C)c32)c1 , thanks.
Response: 0.827

Request: ΔTm at 12.5 µM lookup needed for CS(=O)(=O)CCNCc1ccc(-c2ccc3ncnc(Nc4ccc(OCc5cccc(F)c5)c(Cl)c4)c3c2)o1 , thanks.
Response: 1.16

Request: ΔTm at 12.5 µM lookup needed for C=CCn1c(=O)c2cnc(Nc3ccc(N4CCN(C)CC4)cc3)nc2n1-c1cccc(C(C)(C)O)n1 , thanks.
Response: 1.18

Request: ΔTm at 12.5 µM lookup needed for Cc1ccc(F)c(NC(=O)Nc2ccc(-c3cccc4[nH]nc(N)c34)cc2)c1 , thanks.
Response: 5.04
